Molecular target: oestrogen receptor (ER) (Rattus norvegicus, UniProt P06211)
Construct: from tissue; host or cells: rat uterine cytosol
Sequence (P06211 1-600): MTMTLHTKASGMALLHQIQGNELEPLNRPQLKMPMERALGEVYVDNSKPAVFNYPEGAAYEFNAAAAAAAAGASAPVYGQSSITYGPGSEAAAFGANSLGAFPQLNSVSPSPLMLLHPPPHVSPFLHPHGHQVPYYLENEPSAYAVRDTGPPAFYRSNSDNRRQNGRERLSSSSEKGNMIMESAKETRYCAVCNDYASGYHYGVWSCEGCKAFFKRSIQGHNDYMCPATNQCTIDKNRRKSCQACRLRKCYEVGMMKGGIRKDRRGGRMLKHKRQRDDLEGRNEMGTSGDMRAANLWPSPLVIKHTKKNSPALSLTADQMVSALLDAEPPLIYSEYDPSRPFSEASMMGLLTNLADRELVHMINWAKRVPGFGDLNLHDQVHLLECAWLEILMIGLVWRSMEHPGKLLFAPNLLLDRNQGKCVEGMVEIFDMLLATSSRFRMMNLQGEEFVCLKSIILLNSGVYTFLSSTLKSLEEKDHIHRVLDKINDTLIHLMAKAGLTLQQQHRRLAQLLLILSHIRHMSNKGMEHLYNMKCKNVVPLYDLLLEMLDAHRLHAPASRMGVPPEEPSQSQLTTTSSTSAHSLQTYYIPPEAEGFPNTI
Assay: Relative binding affinity for the oestrogen receptor, rat uterine cytosol competitive binding assay
measurement-type: Binding affinity for ER, RBA

[[record]]
molecule = "CC/C(=C(\\c1ccc(I)cc1)c1ccc(OCCCCN2CCCC2)cc1)c1ccccc1"
measurement_type = "Binding affinity for ER, RBA"
measurement = 9

[[record]]
molecule = "CC/C(=C(\\c1ccc(I)cc1)c1ccc(OCCCN2CCCC2)cc1)c1ccccc1"
measurement_type = "Binding affinity for ER, RBA"
measurement = 23

[[record]]
molecule = "CC/C(=C(\\c1ccc(I)cc1)c1ccc(OCCCCN(C)C)cc1)c1ccccc1"
measurement_type = "Binding affinity for ER, RBA"
measurement = 25

[[record]]
molecule = "CC/C(=C(\\c1ccc(I)cc1)c1ccc(OCCCCCCCCN2CCCC2)cc1)c1ccccc1"
measurement_type = "Binding affinity for ER, RBA"
measurement = 4

